assay: Spectroscopic measurements (absorption, emission, quantum yield, extinction coefficient); assay type: physicochemical; conditions: BDNCA library
measureName: Qunt. Yield
Number, no unit, nothing else.

Entry `COc1cc(/C=C/C2=[N+]3C(=C(c4ccc(NC(=O)CCl)cc4)c4cccn4[B-]3(F)F)C(C)=C2)cc(Cl)c1O` , Qunt. Yield reported as 0.01

Entry `Cc1cc(/C=C/c2ccccc2C(=O)O)n2c1C(c1ccc(NC(=O)CCl)cc1)=C1C=CC=[N+]1[B-]2(F)F` , Qunt. Yield reported as 0.06

Entry `COc1ccc(/C=C/C2=[N+]3C(=C(c4ccc(NC(=O)CCl)cc4)c4cccn4[B-]3(F)F)C(C)=C2)cc1OC` , Qunt. Yield reported as 0.08

---

assay: Spectroscopic measurements (absorption, emission, quantum yield, extinction coefficient); assay type: physicochemical; conditions: quantum yield, BDNCA library
# strict inequality: Qunt. Yield < 0.08 yields label 1, everything else yields label 0

Determine whether this compound shows Qunt. Yield lower than 0.08 (ties excluded): `CC1=CC(/C=C/c2ccccc2Oc2ccc(F)cc2)=[N+]2C1=C(c1ccc(NC(=O)CCl)cc1)c1cccn1[B-]2(F)F`
label 0

Determine whether this compound shows Qunt. Yield lower than 0.08 (ties excluded): `Cc1cc(/C=C/c2cc(Cl)ccc2Cl)n2c1C(c1ccc(NC(=O)CCl)cc1)=C1C=CC=[N+]1[B-]2(F)F`
label 1

Determine whether this compound shows Qunt. Yield lower than 0.08 (ties excluded): `CC1=CC(/C=C/c2c(C)nn(C)c2C)=[N+]2C1=C(c1ccc(NC(=O)CCl)cc1)c1cccn1[B-]2(F)F`
label 0

Determine whether this compound shows Qunt. Yield lower than 0.08 (ties excluded): `CSc1ccccc1/C=C/C1=[N+]2C(=C(c3ccc(NC(=O)CCl)cc3)c3cccn3[B-]2(F)F)C(C)=C1`
label 0

Determine whether this compound shows Qunt. Yield lower than 0.08 (ties excluded): `Cc1cc(/C=C/c2cc(OC(F)(F)F)ccc2O)n2c1C(c1ccc(NC(=O)CCl)cc1)=C1C=CC=[N+]1[B-]2(F)F`
label 1

Determine whether this compound shows Qunt. Yield lower than 0.08 (ties excluded): `CC1=CC(/C=C/c2ccc(Oc3ccc(F)cc3)cc2)=[N+]2C1=C(c1ccc(NC(=O)CCl)cc1)c1cccn1[B-]2(F)F`
label 0

Determine whether this compound shows Qunt. Yield lower than 0.08 (ties excluded): `CCOc1cc(/C=C/C2=[N+]3C(=C(c4ccc(NC(=O)CCl)cc4)c4cccn4[B-]3(F)F)C(C)=C2)ccc1O`
label 1

Determine whether this compound shows Qunt. Yield lower than 0.08 (ties excluded): `Cc1cc(/C=C/c2ccc(Br)cc2)n2c1C(c1ccc(NC(=O)CCl)cc1)=C1C=CC=[N+]1[B-]2(F)F`
label 0

Determine whether this compound shows Qunt. Yield lower than 0.08 (ties excluded): `CC1=CC(/C=C/c2ccc(Cl)c(F)c2)=[N+]2C1=C(c1ccc(NC(=O)CCl)cc1)c1cccn1[B-]2(F)F`
label 0

Determine whether this compound shows Qunt. Yield lower than 0.08 (ties excluded): `CCOc1ccccc1/C=C/c1cc(C)c2n1[B-](F)(F)[N+]1=CC=CC1=C2c1ccc(NC(=O)CCl)cc1`
label 0

Determine whether this compound shows Qunt. Yield lower than 0.08 (ties excluded): `CC1=CC(/C=C/c2cccc(C)c2C)=[N+]2C1=C(c1ccc(NC(=O)CCl)cc1)c1cccn1[B-]2(F)F`
label 1

Determine whether this compound shows Qunt. Yield lower than 0.08 (ties excluded): `Cc1cc(/C=C/c2ccc3c(c2)OC(F)(F)O3)n2c1C(c1ccc(NC(=O)CCl)cc1)=C1C=CC=[N+]1[B-]2(F)F`
label 1
